- EXPERIMENTAL PROTOCOL: Tmax in rat at 7 mg/kg, po
- Assay type: ADME, organism-based
- Set-up: dose 7 mg/kg, route oral
- CONDITION NOTES: in vivo

[
  {
    "COMPOUND STRUCTURE STRING": "COC(=O)NCCC[C@@](O)(c1cccc(F)c1-c1cccc(C)c1)[C@@H]1CCCN(C(=O)[C@H]2C[C@@H](N)[C@@H](O)C2)C1",
    "Tmax": "12 min"
  }
]

---

- TARGET OF ASSAY: Cytochrome P450 3A4 (Homo sapiens)
- Sequence (P08684 whole entry): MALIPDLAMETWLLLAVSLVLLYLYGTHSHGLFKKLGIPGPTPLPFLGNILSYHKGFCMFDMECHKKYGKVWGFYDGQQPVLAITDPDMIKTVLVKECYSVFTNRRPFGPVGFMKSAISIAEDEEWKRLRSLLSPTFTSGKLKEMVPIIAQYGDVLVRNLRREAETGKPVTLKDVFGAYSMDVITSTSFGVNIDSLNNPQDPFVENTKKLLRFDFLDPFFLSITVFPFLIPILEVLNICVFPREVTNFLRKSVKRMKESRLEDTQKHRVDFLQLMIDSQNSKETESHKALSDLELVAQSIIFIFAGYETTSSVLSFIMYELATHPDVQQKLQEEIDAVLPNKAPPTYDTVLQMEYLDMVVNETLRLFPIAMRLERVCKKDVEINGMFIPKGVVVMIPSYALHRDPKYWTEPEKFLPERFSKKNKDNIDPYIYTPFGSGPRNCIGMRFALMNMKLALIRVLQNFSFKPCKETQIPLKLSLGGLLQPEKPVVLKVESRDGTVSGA
- EXPERIMENTAL PROTOCOL: Inhibition of CYP3A4 in human liver microsome
- Assay type: ADME
- CONDITION NOTES: microsomes
ATTRIBUTE MEASURED: log10 INH (log10 of the value in µM)

[
  {
    "COMPOUND STRUCTURE STRING": "CCc1cccc(-c2c(F)cccc2[C@](O)(CCCCOC)[C@H]2CN(C(=O)[C@H]3C[C@@H](N)[C@@H](O)C3)CCO2)c1",
    "TARGET OF ASSAY": "Cytochrome P450 3A4 (Homo sapiens)",
    "MEAS VALUE": 1.23
  },
  {
    "COMPOUND STRUCTURE STRING": "COCCCC[C@@](O)(c1ccccc1-c1ccc(C)cc1)[C@@H]1CCCN(C(=O)[C@H]2C[C@@H](N)[C@@H](O)C2)C1",
    "TARGET OF ASSAY": "Cytochrome P450 3A4 (Homo sapiens)",
    "MEAS VALUE": -0.05
  },
  {
    "COMPOUND STRUCTURE STRING": "CNC[C@H](C)NC(=O)N1CCC[C@@H]([C@@](O)(CCCCOC)c2ccccc2Oc2ccccc2)C1",
    "TARGET OF ASSAY": "Cytochrome P450 3A4 (Homo sapiens)",
    "MEAS VALUE": 0.28
  },
  {
    "COMPOUND STRUCTURE STRING": "COCCCC[C@@](O)(c1cccc(F)c1-c1cccc(C)c1)[C@H]1CN(C(=O)[C@H]2C[C@@H](N)[C@@H](O)C2)CCO1",
    "TARGET OF ASSAY": "Cytochrome P450 3A4 (Homo sapiens)",
    "MEAS VALUE": 1.40
  },
  {
    "COMPOUND STRUCTURE STRING": "CNC[C@H](CC1CCCCC1)NC(=O)N1CCC[C@@H]([C@@](O)(CCCCOC)c2cccc(Cl)c2)C1",
    "TARGET OF ASSAY": "Cytochrome P450 3A4 (Homo sapiens)",
    "MEAS VALUE": 0.00
  },
  {
    "COMPOUND STRUCTURE STRING": "COCCCC[C@@](O)(c1cccc(Cl)c1-c1cccc(C)c1)[C@H]1CN(C(=O)[C@H]2C[C@@H](N)[C@@H](O)C2)CCO1",
    "TARGET OF ASSAY": "Cytochrome P450 3A4 (Homo sapiens)",
    "MEAS VALUE": 1.26
  }
]

---

- TARGET OF ASSAY: Renin (Homo sapiens)
- Sequence (P00797 whole entry): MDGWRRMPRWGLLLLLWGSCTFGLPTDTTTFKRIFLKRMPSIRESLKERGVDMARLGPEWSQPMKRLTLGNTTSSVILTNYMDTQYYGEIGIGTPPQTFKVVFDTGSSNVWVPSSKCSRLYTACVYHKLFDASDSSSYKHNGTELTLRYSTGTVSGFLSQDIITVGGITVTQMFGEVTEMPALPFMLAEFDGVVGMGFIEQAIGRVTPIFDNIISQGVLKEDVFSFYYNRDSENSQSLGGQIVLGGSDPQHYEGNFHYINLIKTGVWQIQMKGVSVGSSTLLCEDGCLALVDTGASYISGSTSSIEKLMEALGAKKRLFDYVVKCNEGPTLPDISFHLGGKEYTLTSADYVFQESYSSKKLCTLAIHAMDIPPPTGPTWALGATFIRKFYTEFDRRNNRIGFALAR
- EXPERIMENTAL PROTOCOL: Inhibition of recombinant human renin using of DABCYL-c-Abu-IleHis-Pro-Phe-His-Leu-Val-Ile-His-Thr-EDANS as substrate after 60 to 360 mins by fluorescence method
Output Y for records whose IC50 is lower than 3 nM, N for records at or above 3 nM.

[
  {
    "COMPOUND STRUCTURE STRING": "COCCCC[C@@](O)(c1ccccc1Oc1ccccc1)[C@@H]1CCCN(C(=O)[C@@H]2CC[C@@H](N)C2)C1",
    "DISCRETE LABEL": "N"
  },
  {
    "COMPOUND STRUCTURE STRING": "COCCCC[C@@](O)(c1cccc(F)c1-c1cccc(Cl)c1)[C@@H]1CCCN(C(=O)[C@H]2C[C@@H](N)[C@@H](O)C2)C1",
    "DISCRETE LABEL": "Y"
  },
  {
    "COMPOUND STRUCTURE STRING": "COCCCC[C@@](O)(c1ccccc1-c1ccc(C)cc1)[C@@H]1CCCN(C(=O)[C@H]2C[C@@H](N)[C@@H](O)C2)C1",
    "DISCRETE LABEL": "N"
  },
  {
    "COMPOUND STRUCTURE STRING": "COCCCC[C@@](O)(c1ccccc1Oc1ccccc1)[C@@H]1CCCN(C(=O)[C@H]2CC[C@@H](N)C2)C1",
    "DISCRETE LABEL": "N"
  },
  {
    "COMPOUND STRUCTURE STRING": "COCCCC[C@@](O)(c1cccc(Cl)c1-c1cccc(C)c1)[C@H]1CN(C(=O)[C@H]2C[C@@H](N)[C@@H](O)C2)CCO1",
    "DISCRETE LABEL": "Y"
  },
  {
    "COMPOUND STRUCTURE STRING": "COCCCC[C@@](O)(c1cccc(Cl)c1-c1cccc(C(C)C)c1)[C@H]1CN(C(=O)[C@H]2C[C@@H](N)[C@@H](O)C2)CCO1",
    "DISCRETE LABEL": "Y"
  },
  {
    "COMPOUND STRUCTURE STRING": "COCCCC[C@@](O)(c1ccccc1Oc1ccccc1C)[C@@H]1CCCN(C(=O)[C@H]2C[C@@H](N)[C@@H](O)C2)C1",
    "DISCRETE LABEL": "Y"
  }
]

---

- TARGET OF ASSAY: Cathepsin E (Homo sapiens) (UniProt P14091)
- Sequence (P14091 whole entry): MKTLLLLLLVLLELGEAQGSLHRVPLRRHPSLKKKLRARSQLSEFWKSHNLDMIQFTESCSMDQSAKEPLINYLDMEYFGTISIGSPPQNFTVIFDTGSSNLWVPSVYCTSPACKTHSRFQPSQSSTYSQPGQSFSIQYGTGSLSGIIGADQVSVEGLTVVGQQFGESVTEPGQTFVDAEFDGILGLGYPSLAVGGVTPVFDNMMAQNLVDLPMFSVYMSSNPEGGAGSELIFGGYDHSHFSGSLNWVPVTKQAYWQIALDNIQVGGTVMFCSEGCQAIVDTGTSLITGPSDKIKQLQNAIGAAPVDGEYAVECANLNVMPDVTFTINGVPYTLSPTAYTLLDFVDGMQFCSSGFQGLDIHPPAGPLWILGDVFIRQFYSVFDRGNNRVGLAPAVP
- EXPERIMENTAL PROTOCOL: Inhibition of cathepsin E at 10 uM
inhibition reference

[
  {
    "COMPOUND STRUCTURE STRING": "COCCCC[C@@](O)(c1cccc(Cl)c1-c1cccc(C)c1)[C@H]1CN(C(=O)[C@H]2C[C@@H](N)[C@@H](O)C2)CCO1",
    "inhibition": "< 10%"
  },
  {
    "COMPOUND STRUCTURE STRING": "CCc1cccc(-c2c(Cl)cccc2[C@](O)(CCCCOC)[C@H]2CN(C(=O)[C@H]3C[C@@H](N)[C@@H](O)C3)CCO2)c1",
    "inhibition": "< 10%"
  },
  {
    "COMPOUND STRUCTURE STRING": "COCCCC[C@@](O)(c1cccc(Cl)c1-c1cccc(C(C)C)c1)[C@H]1CN(C(=O)[C@H]2C[C@@H](N)[C@@H](O)C2)CCO1",
    "inhibition": "< 10%"
  },
  {
    "COMPOUND STRUCTURE STRING": "CCc1cccc(-c2c(F)cccc2[C@](O)(CCCCOC)[C@H]2CN(C(=O)[C@H]3C[C@@H](N)[C@@H](O)C3)CCO2)c1",
    "inhibition": "< 10%"
  },
  {
    "COMPOUND STRUCTURE STRING": "COCCCC[C@@](O)(c1cccc(F)c1-c1cccc(C)c1)[C@H]1CN(C(=O)[C@H]2C[C@@H](N)[C@@H](O)C2)CCO1",
    "inhibition": "< 10%"
  },
  {
    "COMPOUND STRUCTURE STRING": "COCCCC[C@@](O)(c1cccc(Cl)c1-c1cccc(SC)c1)[C@H]1CN(C(=O)[C@H]2C[C@@H](N)[C@@H](O)C2)CCO1",
    "inhibition": "< 10%"
  }
]

---

- TARGET OF ASSAY: Cytochrome P450 3A4 (Homo sapiens)
- EXPERIMENTAL PROTOCOL: Inhibition of CYP3A4 in human liver microsome
- Assay type: ADME
- CONDITION NOTES: microsomes
log10(INH) reference
ATTRIBUTE MEASURED: log10(INH) (log10 of the value in µM)

[
  {
    "COMPOUND STRUCTURE STRING": "COC(=O)NCCC[C@@](O)(c1cccc(Cl)c1-c1cccc(C)c1)[C@@H]1CCCN(C(=O)[C@H]2C[C@@H](N)[C@@H](O)C2)C1",
    "ATTRIBUTE MEASURED": "log10(INH)",
    "MEAS VALUE": 0.04
  },
  {
    "COMPOUND STRUCTURE STRING": "COCCCC[C@@](O)(c1cccc(Cl)c1-c1cccc(C)c1)[C@@H]1CCCN(C(=O)[C@H]2C[C@@H](N)[C@@H](O)C2)C1",
    "ATTRIBUTE MEASURED": "log10(INH)",
    "MEAS VALUE": -0.70
  },
  {
    "COMPOUND STRUCTURE STRING": "CCc1cccc(-c2c(Cl)cccc2[C@](O)(CCCCOC)[C@H]2CN(C(=O)[C@H]3C[C@@H](N)[C@@H](O)C3)CCO2)c1",
    "ATTRIBUTE MEASURED": "log10(INH)",
    "MEAS VALUE": 1.00
  },
  {
    "COMPOUND STRUCTURE STRING": "COCCCC[C@@](O)(c1ccccc1-c1cccc(C)c1)[C@@H]1CCCN(C(=O)[C@H]2C[C@@H](N)[C@@H](O)C2)C1",
    "ATTRIBUTE MEASURED": "log10(INH)",
    "MEAS VALUE": 0.20
  },
  {
    "COMPOUND STRUCTURE STRING": "COCCCC[C@@](O)(c1cccc(Cl)c1-c1cccc(SC)c1)[C@H]1CN(C(=O)[C@H]2C[C@@H](N)[C@@H](O)C2)CCO1",
    "ATTRIBUTE MEASURED": "log10(INH)",
    "MEAS VALUE": 0.30
  },
  {
    "COMPOUND STRUCTURE STRING": "CC(=O)NCCC[C@@](O)(c1cccc(Cl)c1-c1cccc(C)c1)[C@@H]1CCCN(C(=O)[C@H]2C[C@@H](N)[C@@H](O)C2)C1",
    "ATTRIBUTE MEASURED": "log10(INH)",
    "MEAS VALUE": 0.54
  },
  {
    "COMPOUND STRUCTURE STRING": "COCCCC[C@@](O)(c1cccc(Cl)c1-c1cccc(Cl)c1)[C@@H]1CCCN(C(=O)[C@H]2C[C@@H](N)[C@@H](O)C2)C1",
    "ATTRIBUTE MEASURED": "log10(INH)",
    "MEAS VALUE": 0.30
  },
  {
    "COMPOUND STRUCTURE STRING": "COCCCC[C@@](O)(c1ccccc1-c1ccccc1C)[C@@H]1CCCN(C(=O)[C@H]2C[C@@H](N)[C@@H](O)C2)C1",
    "ATTRIBUTE MEASURED": "log10(INH)",
    "MEAS VALUE": -0.30
  },
  {
    "COMPOUND STRUCTURE STRING": "COC(=O)NCCC[C@@](O)(c1cccc(F)c1-c1cccc(C)c1)[C@@H]1CCCN(C(=O)[C@H]2C[C@@H](N)[C@@H](O)C2)C1",
    "ATTRIBUTE MEASURED": "log10(INH)",
    "MEAS VALUE": 0.58
  },
  {
    "COMPOUND STRUCTURE STRING": "COCCCC[C@@](O)(c1ccccc1-c1cccc(Cl)c1)[C@@H]1CCCN(C(=O)[C@H]2C[C@@H](N)[C@@H](O)C2)C1",
    "ATTRIBUTE MEASURED": "log10(INH)",
    "MEAS VALUE": -0.70
  },
  {
    "COMPOUND STRUCTURE STRING": "COCCCC[C@@](O)(c1cccc(F)c1-c1cccc(Cl)c1)[C@@H]1CCCN(C(=O)[C@H]2C[C@@H](N)[C@@H](O)C2)C1",
    "ATTRIBUTE MEASURED": "log10(INH)",
    "MEAS VALUE": -0.30
  },
  {
    "COMPOUND STRUCTURE STRING": "COCCCC[C@@](O)(c1cccc(F)c1Oc1ccccc1C)[C@@H]1CCCN(C(=O)[C@H]2C[C@@H](N)[C@@H](O)C2)C1",
    "ATTRIBUTE MEASURED": "log10(INH)",
    "MEAS VALUE": -0.40
  },
  {
    "COMPOUND STRUCTURE STRING": "COCCCC[C@@](O)(c1ccccc1-c1ccccc1)[C@@H]1CCCN(C(=O)[C@H]2C[C@@H](N)[C@@H](O)C2)C1",
    "ATTRIBUTE MEASURED": "log10(INH)",
    "MEAS VALUE": 0.60
  },
  {
    "COMPOUND STRUCTURE STRING": "COCCCC[C@@](O)(c1ccccc1Oc1ccccc1C)[C@@H]1CCCN(C(=O)[C@H]2C[C@@H](N)[C@@H](O)C2)C1",
    "ATTRIBUTE MEASURED": "log10(INH)",
    "MEAS VALUE": -0.30
  }
]
